# study_target: corticotropin releasing factor 1 receptor; note: reference of the scale not given here
# run_description: cell-based or functional assay
Ends that are not written are not given here.
CRF1R Emax strictly less than 10% = YES. Otherwise NO.

binder: IVLSLDVPIGLLQILLEQARADAAREQATTNARILARV-NH2 [SEQ ID NO 130]
classification: YES

binder: IVLSLDVPIGLLQELLEMARAEQLAQQAHSNRKLMEII-NH2 [SEQ ID NO 1]
classification: NO

binder: IVLSLDVPIGLLQILLEQAKADAAREQATTNARILARV-NH2 [SEQ ID NO 131]
classification: YES

binder: ZGPPISIDLPNYLLRKMIEIEKQEKEKQQAANNRLLLDTI (C-terminal amide) [SEQ ID NO 64]
classification: NO

binder: IVLSLDVPIGLLQILLEQARQEAAREQATTNARILARV-NH2 [SEQ ID NO 123]
classification: YES

binder: ZGPPISIDLPTWLLRKMIEIEKQEKEKQQAANNRLLLDTI (C-terminal amide) [SEQ ID NO 41]
classification: NO

binder: DNPSLSIDLPLILLRTLLELARTQSQRERAEQNAIIFASV-NH2 [SEQ ID NO 175]
classification: NO

binder: IVLSLDVPIGLLQILIEIEKQEKEKQQAATTNARILARV-NH2 [SEQ ID NO 168]
classification: NO

binder: IVLSLDVPIGLLQILLEQARARAAREQATSNRKLMEII-NH2 [SEQ ID NO 163]
classification: NO

binder: SQEPPISLDLPFYLLREVLEMTKADQLAQQAHSNRKLLDIA-NH2 [SEQ ID NO 96]
classification: NO

binder: ZGPPISIDLPFGLLRKMIEIEKQEKEKQQAANNRLLLDTI (C-terminal amide) [SEQ ID NO 68]
classification: NO

binder: ZGPPISIDLPIKLLRKMIEIEKQEKEKQQAANNRLLLDTI (C-terminal amide) [SEQ ID NO 34]
classification: NO
